- targetSystem: IDH2/R140Q (Homo sapiens, UniProt P48735, R140Q)
- Sequence (P48735 40-452 R140Q): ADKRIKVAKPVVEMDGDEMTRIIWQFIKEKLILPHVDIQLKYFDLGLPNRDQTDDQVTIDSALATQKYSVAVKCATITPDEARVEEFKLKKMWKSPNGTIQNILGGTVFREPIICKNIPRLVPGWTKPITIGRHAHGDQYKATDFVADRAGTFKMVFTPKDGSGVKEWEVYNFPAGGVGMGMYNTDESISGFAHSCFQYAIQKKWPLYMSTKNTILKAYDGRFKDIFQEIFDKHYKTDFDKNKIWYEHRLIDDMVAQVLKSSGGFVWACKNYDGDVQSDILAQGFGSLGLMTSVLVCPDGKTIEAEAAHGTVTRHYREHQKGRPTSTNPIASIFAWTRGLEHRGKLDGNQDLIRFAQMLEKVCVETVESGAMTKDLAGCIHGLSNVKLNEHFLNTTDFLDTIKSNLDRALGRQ
- testName: Inhibition of mutant IDH2 activity at the cell level (extracellular 2-HG, U87MG overexpressing IDH2/R140Q)
- Type: cell-based
- Protocol: 2-hydroxyglutarate dehydrogenase (2HGDH) can reduce NAD+ to NADH in the presence of 2-HG. The latter can be quantitatively detected by diaphorase and its substrate Resazurin. […] Preparation of 2-HG standard curve: a 2-HG stock solution was diluted to 20 μM with reaction buffer, and a 2-fold gradient diluting was performed for a total of 6 points. Afterwards, the above-mentioned 2-HG was measured according to the extracellular 2-HG detecting system, and a standard curve was calculated and drawn. […]
pIC50: −log10 of the molar value.
reportedMetric: pIC50

### Prompt What value of pIC50 has been recorded for this entry: CC(C)(O)CNc1nc(Nc2ccnc(C(F)(F)F)c2)nc(-c2cccc(C(F)(F)F)n2)n1 [AG-221, Enasidenib, reference compound]
### Response > 7.00

---

Reported pIC50 is given for each of the following molecules.
- targetSystem: IDH2/R140Q (Homo sapiens, UniProt P48735, R140Q)
- testName: Determination of the inhibitory activity of the compounds on IDH2/R140Q (NADPH reduction, resazurin/lipoamide dehydrogenase detection)
- Type: biochemical
- Design: purchased Abcam ab198153
- details: IDH2/R140Q inhibitory activity; pre-incubated at 25° C. for 16 hours; read-out: IC50
pIC50: −log10 of the molar value.

smi: Cc1cc2c(NC(C)(C)C)nc(-c3ccccc3)nc2[nH]1
pIC50: < 5.00
//
smi: Cc1cc2c(NC3CCCC3)nc(-c3ccccc3)nc2[nH]1
pIC50: > 7.00
//
smi: CC(C)Nc1nc(-c2ccccc2)nc2[nH]c(C(F)(F)F)cc12
pIC50: > 7.00
//
smi: Cc1cc2c(-c3ccccc3)nc(-c3ccccc3)nc2[nH]1
pIC50: < 5.00
//
smi: Cc1cc2c(NC(C)C)nc(-c3cccnc3)nc2[nH]1
pIC50: < 5.00
//
smi: c1ccc(Nc2nc(-c3ccccc3)nc3[nH]ccc23)cc1
pIC50: < 5.00
//
smi: Cc1cc2c(Nc3ccccc3)nc(-c3ccccc3F)nc2[nH]1
pIC50: 6.00 to 7.00
//
smi: Cc1cc2c(-c3ccccc3)nc(NC(C)C)nc2[nH]1
pIC50: < 5.00

### Prompt What value of pIC50 has been recorded for this entry: "Cc1cc2c(NC3CC3)nc(-c3ccc(O)cc3)nc2[nH]1"
### Response 6.00 to 7.00

### Prompt What value of pIC50 has been recorded for this entry: "Cc1cc2c(Nc3ccccc3)nc(-c3ccccc3)nc2[nH]1"
### Response 6.00 to 7.00

### Prompt What value of pIC50 has been recorded for this entry: "Cc1cc2c(NC3CC3)nc(-c3ccccc3)nc2[nH]1"
### Response 6.00 to 7.00

### Prompt What value of pIC50 has been recorded for this entry: "Cc1cc2c(Nc3ccccc3)nc(Nc3ccccc3)nc2[nH]1"
### Response < 5.00

### Prompt What value of pIC50 has been recorded for this entry: "Cc1cc2c(NC(C)C)nc(-c3ccncc3)nc2[nH]1"
### Response < 5.00

### Prompt What value of pIC50 has been recorded for this entry: "Cc1cc2c(NCc3ccccc3)nc(-c3ccccc3)nc2[nH]1"
### Response < 5.00

### Prompt What value of pIC50 has been recorded for this entry: "Cc1cccc(-c2nc(NC3CC3)c3cc(C)[nH]c3n2)c1"
### Response 6.00 to 7.00

### Prompt What value of pIC50 has been recorded for this entry: "Cc1cc2c(NC(C)C)nc(-c3ccccn3)nc2[nH]1"
### Response < 5.00
